- Experimental protocol: Steady state oral/IV rat PK and compound penetration into spine and brain (Example 16)
- Type: in vivo, Sprague-Dawley rats
- Assay conditions: male, Sprague-Dawley, rat, plasma, po, 40 mg/kg, DAY 3, 40 mg/kg PO once per day, plasma
Value type: AUC(0-inf) (ng·h/mL)
The answer is to be given in ng·h/mL; state only the numeric part.

Query: Quick one: AUC(0-inf) of [2H]C([2H])([2H])c1ccc(C#Cc2ccc(S(=O)(=O)N[C@H](Cc3c[nH]c4ccccc34)C(=O)O)s2)cc1 ?
Response: 15800

###

For each entry below, report its Cmax value.
- Experimental protocol: In-vivo oral rat pharmacokinetics (Example 15)
- Assay conditions: male Sprague-Dawley rats, dose level 10 mg/kg, 0.5% MC, plasma, mean
Enter your answer as a number in ng/mL; do not include the unit.

Query: Please look up its Cmax: Cc1ccc(C#Cc2ccc(S(=O)(=O)N[C@H](Cc3c[nH]c4ccccc34)C(=O)O)s2)cc1
Response: 1580

Query: Now the molecule [2H]C([2H])([2H])c1ccc(C#Cc2ccc(S(=O)(=O)N[C@H](Cc3c[nH]c4ccccc34)C(=O)O)s2)cc1
Response: 2740
